Attribution: paper PMC10794626

# Assay Overview: Kinetic solubility of MMTC diluted from DMSO stock into HBSS*
# Assay type: physicochemical
# Condition Context: HBSS* buffer, pH 7.4; HBSS*, 37°C, during the course of the uptake study; read-out: Kinetic solubility
# Description: Quantification of compounds was performed using a Waters 2695 HPLC system (Waters Corporation, MA, United States) connected to a Waters 2487 Dual λ Absorbance Detector (Waters Corporation, MA, United States). […] Samples of 20 μL, maintained at 25°C, were injected and all five compounds were measured at 270 nm. […] Linear regression of peak height as a function of concentration was analyzed using GraphPad Prism 9.4.1. […]
Value Kind: solubility kinetic

Q) Which solubility kinetic reading was recorded for the compound Cc1ccc(S(=O)(=O)N(C)c2ccsc2C(=O)NCc2ccccc2C(F)(F)F)cc1 [MMTC] ?
A) 2.5 to 10 µM

###

# Assay Overview: Equilibrium solubility in HBSS* buffer (HPLC-UV)
# Type: physicochemical
# Condition Context: HEPES buffered HBSS (HBSS*) buffer, aqueous buffer, pH 7.4, 37°C, mean ± SD, N = 3
Value Kind: solubility thermodynamic (µM)
Your answer is read as µM, so omit the unit and give the number.

Previously resolved entries follow.
• Cc1nc(-n2nc(C)c(Cc3ccc(Cl)cc3)c2C)sc1C(=O)N1CCN(C)CC1 [57B] = 27.5
• CC(C)c1ccc(S(=O)(=O)Nc2ccc3nc(S(C)(=O)=O)sc3c2)cc1 [54F] = 56.1
• Cc1ccccc1Nc1c(-c2ccc(N3CCOCC3)cc2)nc2cnccn12 [53B] = 24.9

Q) Which solubility thermodynamic reading was recorded for the compound COC(=O)c1ccccc1NC(=O)Nc1c(-c2ccncc2)[nH]c2ccc(Cl)cc12 [55B] ?
A) 13.2
